# Experimental target: CD63 on cells (human) (UniProt P08962)
# Sequence (P08962 2-238): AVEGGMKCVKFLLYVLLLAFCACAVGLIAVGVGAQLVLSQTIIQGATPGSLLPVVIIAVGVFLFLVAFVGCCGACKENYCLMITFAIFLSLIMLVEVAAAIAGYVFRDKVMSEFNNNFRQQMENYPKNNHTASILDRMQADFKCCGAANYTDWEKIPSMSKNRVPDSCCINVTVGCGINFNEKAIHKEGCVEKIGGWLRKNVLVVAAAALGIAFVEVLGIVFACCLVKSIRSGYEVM
# Method: cell-based or functional assay
# IC50 of cytotoxicity, SK-OV-3 cells (CellTiter-GLO, 4 days) annotations
Measured metric: IC50 of cytotoxicity, SK-OV-3 cells (CellTiter-GLO, 4 days) (µg/mL)

Binder	Test result
bsCD63xb12-Duo3 with CD63 variant LV49H (bispecific antibody, part only; not given: b12 control arm, V domains shown, part only) VH: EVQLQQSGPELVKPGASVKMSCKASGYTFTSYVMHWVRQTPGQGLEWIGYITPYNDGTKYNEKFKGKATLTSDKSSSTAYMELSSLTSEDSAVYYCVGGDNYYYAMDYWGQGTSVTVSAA VL: NIMVTQSPSSLAVSAGEKVTMSCKSSQSHLYSSNQKNYLAWYQQKPGQSPKLLIYWASTRVSGVPDRFTGSGSGTDFTLTISRVQAEDLAVYYCHQYFSSFTFGSGTKLEIKRT	1.4
bsHER2xCD63-Duo3 with CD63 variant LQ47 (bispecific antibody, part only; not given: HER2 arm, V domains shown, part only) VH: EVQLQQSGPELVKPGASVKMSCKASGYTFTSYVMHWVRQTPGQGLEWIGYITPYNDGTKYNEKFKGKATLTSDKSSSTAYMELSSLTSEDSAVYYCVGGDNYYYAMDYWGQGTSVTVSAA VL: NIMVTQSPSSLAVSAGEKVTMSCKSSHSVLYSSNQKNYLAWYQQKPGQSPKLLIYWASTRVSGVPDRFTGSGSGTDFTLTISRVQAEDLAVYYCHQYFSSFTFGSGTKLEIKRT	0.048
bsCD63N74Hxb12-Duo3 (bispecific antibody, part only; not given: b12 control arm, V domains shown, part only) VH: EVQLQQSGPELVKPGASVKMSCKASGYTFTSYVMHWVRQTPGQGLEWIGYITPYHDGTKYNEKFKGKATLTSDKSSSTAYMELSSLTSEDSAVYYCVGGDNYYYAMDYWGQGTSVTVSAA VL: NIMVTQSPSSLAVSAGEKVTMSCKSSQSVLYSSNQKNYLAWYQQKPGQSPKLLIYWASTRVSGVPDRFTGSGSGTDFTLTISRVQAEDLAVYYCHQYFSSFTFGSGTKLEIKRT	1.99
bsCD63xb12-Duo3 with CD63 variant G76H (bispecific antibody, part only; not given: b12 control arm VH and VL, V domains shown, part only) VH: EVQLQQSGPELVKPGASVKMSCKASGYTFTSYVMHWVRQTPGQGLEWIGYITPYNDHTKYNEKFKGKATLTSDKSSSTAYMELSSLTSEDSAVYYCVGGDNYYYAMDYWGQGTSVTVSAA VL: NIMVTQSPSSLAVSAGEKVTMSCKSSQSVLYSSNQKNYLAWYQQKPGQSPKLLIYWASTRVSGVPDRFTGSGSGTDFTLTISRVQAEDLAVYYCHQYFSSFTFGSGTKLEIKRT	3.06
